target: canine CD3 on canine T cells (canine PBMC) (canine, UniProt P27597 22-202); test: cell-based or functional assay
Sequence (P27597 22-202 limits assumed, chain 1 of 3): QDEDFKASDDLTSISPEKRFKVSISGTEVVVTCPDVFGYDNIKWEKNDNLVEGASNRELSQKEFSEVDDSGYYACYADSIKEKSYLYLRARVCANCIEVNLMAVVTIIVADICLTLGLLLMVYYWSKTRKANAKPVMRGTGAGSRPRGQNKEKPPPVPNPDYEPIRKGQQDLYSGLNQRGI
Sequence (chain, as listed by the source limits assumed, chain 2 of 3): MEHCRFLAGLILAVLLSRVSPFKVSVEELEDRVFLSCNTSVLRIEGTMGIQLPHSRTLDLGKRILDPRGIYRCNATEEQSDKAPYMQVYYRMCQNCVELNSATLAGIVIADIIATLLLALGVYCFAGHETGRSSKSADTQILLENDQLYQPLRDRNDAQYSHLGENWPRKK
Sequence (chain, as listed by the source limits assumed, chain 3 of 3): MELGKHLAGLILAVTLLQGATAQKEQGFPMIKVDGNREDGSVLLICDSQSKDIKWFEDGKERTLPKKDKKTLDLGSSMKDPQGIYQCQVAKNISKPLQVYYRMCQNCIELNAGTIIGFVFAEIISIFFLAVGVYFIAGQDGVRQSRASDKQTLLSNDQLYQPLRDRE
Recorded IFNy Concentration pg/ml, Day 9, IS, one value per entry.
API: value field is a number in pg/mL; no unit string.

- Binder: "PMX193 (monospecific anti-canine CD3, canine IgG-B effector function deficient Fc) (antibody, V domains shown) VH: EVQLVESGGDLVKPGGSLRLSCVASGFTFSTYHMSWVRQAPGKGLQWVAYISSGGSRTNYADAVKGRFTISRDNAKNTLYLQMNSLRAEDAAVFYCARHYGSSLFDYWGQGTLVTVSS VL: DIVMTQTPLSLSVSPGEPASISCKASQSLLHINGNTYLYWFRQKPGQSPQRLIYKVSNRDPGVPDRFSGSGSGTDFTLRISRVEADDAGVYYCGQGIQDPTFGKGTHLEIK"
  IFNy Concentration pg/ml, Day 9, IS [pg/mL]: 544
- Binder: "PMX197 (monospecific anti-canine CD3, canine IgG-B effector function deficient Fc) (antibody, V domains shown) VH: ELTLQESGPGLVKPSQTLSLTCLVSGGSVTRSYYWNWIRQRPGRGLEWMGYWTGSTNYNPAFQGRISIIPDTAKNQFSLQLTSMTTDDTAIYFCAREGGRTLGAFADWGQGTLVTVSS VL: SYVLTQLPSKNVTLKQPAHITCGGDKIGSKNVHWYQQKLGQAPVLIIYYDSSRPTGIPERFSGANSGNTATLTISGALAEDEADYYCQVWDSSAKASVFGGGTHLTVL"
  IFNy Concentration pg/ml, Day 9, IS [pg/mL]: 307

For the binder shown here, PMX196 (monospecific anti-canine CD3, canine IgG-B effector function deficient Fc) (antibody, V domains shown) VH: ELTLQESGPGLVKPSQTLSLTCVVSGGSVTSSYYWNWIRQRPGRGLEWMGYWTGSTIYNPAFQGRISITADTAKNQFSLQLSSMTTEDTAVYFCVRERRMAFGSWGQGTLVIVSS VL: SYVLTQLPSKSVTLKQPAHITCGGDNIGRKSVHWYQQKLGQAPVLIISFDNNRPTGIPERFSGANSGNTATLTISGALAEDEADYYCQVWDSSAKASVFGGGTHLTVL , give the reported IFNy Concentration pg/ml, Day 9, IS. 160
